System: HL-60
Experiment: NCI tumour cell line growth inhibition, 48 h
Calls of active or inactive are those of the source. Cut-off read from the data, not from the text of the source: active = GI50 up to about 1.1 µM and inactive = higher.
Your response should consist of one outcome taken from true = active, false = inactive

compound: S=C(N/N=C/c1ccccn1)N1CCCCCC1
target: HL-60
qualitativeLabel: true

*Q* Record request — test call for COc1ccc(-c2nc(-c3cnccn3)n(Cc3ccccc3)n2)cc1
*A* false

*Q* Can you check CC12CCC(C)(c3cc(O)c(O)cc31)c1cc(O)c(O)cc12 next?
*A* false

---

Test system: SK-MEL-5
Assay: NCI tumour cell line growth inhibition, 48 h
Calls of active or inactive are those of the source. Cut-off read from the data, not from the text of the source: active = GI50 up to about 1.1 µM and inactive = higher.
valueType: GI50

Please review the following examples before continuing.
compound: N#C/C(=C/c1ccco1)C(=O)c1ccccc1
result: > 100 µM (inactive)
//
compound: CCOC(=O)/C=C(\C(=O)OCC)n1ccc(=O)n(Cc2cnnn2CCCCOC(C)=O)c1=O
result: 13.5 µM (inactive)
//
compound: COC(=O)C1C(O)C(C)C(O)C(C)/C=C\C=C(C)C(=O)Nc2c(C)c(OC(C)=O)c3c(c2O)C(=O)C(C)=C2OCOC(=C23)C(C)=CC(C)(O)C(O)C(C)C1O (stereo not drawn)
result: 41.2 µM (inactive)
//
compound: COc1ccc2cc(C(C)C(=O)N3CCOC3=O)ccc2c1 (stereo not drawn)
result: > 100 µM (inactive)
//
compound: O=C1c2cc(Cl)ccc2-n2c(noc2=O)C2CSCN12 (stereo not drawn)
result: > 100 µM (inactive)

*Q* // map Cc1nc(C)c(C(=O)NNC(=O)Cc2ccccc2)cc1C(=O)NNC(=O)Cc1ccccc1 to recorded GI50 (system: SK-MEL-5)
*A* > 100 µM (inactive)

*Q* Proceed to CC(=O)NC1C(OCc2ccccc2)OC(COC(=O)CCCCCCCCCCNC(=O)CCNc2ccc([N+](=O)[O-])c3[nH]c4ccc(O)cc4c(=O)c23)C(O)C1OC(C)C(=O)N[C@H](C(=O)N[C@H](CCC(=O)O)C(N)=O)C(C)C (stereo partly drawn)
*A* > 100 µM (inactive)

*Q* Please give the result for CCc1nc(Cl)nc(Cl)c1Cl too.
*A* 2.56 µM (inactive)

---

Test system: SNB-19
Assay: NCI tumour cell line growth inhibition, 48 h
Active and inactive are the calls of the source. Rule as the data show it: active = GI50 up to about 1.1 µM and inactive = higher.
Pick one and only one: active, inactive

molecule: COC(=O)[C@]12C3=C(O)C(=O)C[C@H]1OC[C@H]2C=CC3
qualitativeLabel: inactive
--
molecule: N#CC1C(=O)NC2=C(CCOc3c2ccc2ccccc32)C1c1ccc(F)cc1 (stereo not given)
qualitativeLabel: inactive

*Q* Returns: the outcome recorded for O=c1c(Sc2ncccn2)c(Sc2ncccn2)cnn1CCl in this assay.
*A* inactive

*Q* And for COC(=O)c1cc2c3c(cc(N(C)C)c2[nH]1)N(C(=O)c1cc2cc(OC)c(OC)c(OC)c2[nH]1)CC3CCl (stereo not given) ?
*A* active

*Q* Same question for O=C1c2cccc3cccc(c23)C(=O)N1O please.
*A* inactive

*Q* Then CC(=O)C1C(=O)C(=O)N(c2ccc(Cl)cc2C)C1=O (stereo not given) ?
*A* inactive

*Q* Do the same for CCOC(=O)C(=[N+]=[N-])C(=O)C[N+]12CCN(CC1)CC2 please
*A* inactive

---

Entries and their measured GI50 follow.
Test system: NCI-H460
Test: NCI tumour cell line growth inhibition, 48 h
The source made the active and inactive calls. Cut-off read from the data, not from the text of the source: active = GI50 up to about 1.1 µM and inactive = higher.

*Q* Which GI50 value is on record for COC(=O)C(=CNC(N)=O)C(=O)OC ?
*A* > 100 µM (inactive)

*Q* Same for CC(C)CC(N/C=C1/N=C(c2ccccc2)OC1=O)C(=O)O (stereo unspecified)
*A* > 100 µM (inactive)

*Q* // next record CCOC(=O)C(=[N+]=[N-])C(=O)C[N+]12CCN(CC1)CC2
*A* > 100 µM (inactive)
